Tested on: autophagy proteins (p62, LC3, ATG12-ATG5, ATG12, Beclin-1) in U1 cells
protocol_description: Autophagy protein profile, CBD versus autophagy drugs, in U1 cells and their EVs (Western blot)
Assay type: cell-based
experimental_parameters: 5 days, CBD 10 μM, Rapamycin 50 nM, INK128 50 nM, Bafilomycin A1 50 nM, SB 203580 20 μM, Wortmannin 2 nM, lower panel
measure: EV-associated LC3 I

C=C(C)[C@@H]1CCC(C)=C[C@H]1c1c(O)cc(CCCCC)cc1O :: reduction
CO/C1=C\C(C)=C\[C@@H](C)[C@@H](O)[C@@H](C)C/C(C)=C/C=C/[C@H](OC)[C@@H]([C@@H](C)[C@@H](O)[C@H](C)[C@@]2(O)C[C@@H](O)[C@H](C)[C@@H](C(C)C)O2)OC1=O :: elevated levels
C[S+]([O-])c1ccc(-c2nc(-c3ccncc3)c(-c3ccc(F)cc3)[nH]2)cc1 (stereo not shown) :: elevated levels
CC(C)n1nc(-c2ccc3oc(N)nc3c2)c2c(N)ncnc21 :: reduction
